I'd appreciate it if you could supply EC50 values for the items below.
# targetOfAssay: α1β3γ2S GABAA receptors (Homo sapiens, UniProt P14867+P28472)
# Sequence (P28472 26-473, one chain of several): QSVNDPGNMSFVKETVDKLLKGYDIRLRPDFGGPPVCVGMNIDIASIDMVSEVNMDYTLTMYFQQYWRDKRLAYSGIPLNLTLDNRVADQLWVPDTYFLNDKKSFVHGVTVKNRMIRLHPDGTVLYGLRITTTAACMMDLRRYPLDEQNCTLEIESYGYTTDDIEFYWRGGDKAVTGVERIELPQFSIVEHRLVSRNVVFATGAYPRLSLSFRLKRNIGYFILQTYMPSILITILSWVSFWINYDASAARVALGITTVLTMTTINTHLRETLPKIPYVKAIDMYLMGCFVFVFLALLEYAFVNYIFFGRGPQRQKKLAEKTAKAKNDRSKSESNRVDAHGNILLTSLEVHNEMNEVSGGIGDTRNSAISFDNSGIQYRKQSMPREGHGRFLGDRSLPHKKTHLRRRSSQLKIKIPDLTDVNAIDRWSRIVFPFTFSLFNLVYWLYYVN
# testMethodNotes: Two-microelectrode voltage clamp, IGABA modulation, α1β3γ2S
Just the number in µM, nothing appended.

Lab note: measured EC50 of `CCCCN(CCCC)C(=O)/C=C/C=C/c1ccc2c(c1)OCO2` was 29.5

Measured EC50, `CCCN(CCC)C(=O)/C=C/C=C/c1ccc2c(c1)OCO2` : 34.7

----------
# targetOfAssay: α1β2γ2S GABAA receptors (Homo sapiens, UniProt P14867+P47870)
# Construct: expressed in transfected cells; host or cells: Xenopus laevis oocytes injected with cRNA (pCMV cDNA templates)
# Sequence (P14867 28-456): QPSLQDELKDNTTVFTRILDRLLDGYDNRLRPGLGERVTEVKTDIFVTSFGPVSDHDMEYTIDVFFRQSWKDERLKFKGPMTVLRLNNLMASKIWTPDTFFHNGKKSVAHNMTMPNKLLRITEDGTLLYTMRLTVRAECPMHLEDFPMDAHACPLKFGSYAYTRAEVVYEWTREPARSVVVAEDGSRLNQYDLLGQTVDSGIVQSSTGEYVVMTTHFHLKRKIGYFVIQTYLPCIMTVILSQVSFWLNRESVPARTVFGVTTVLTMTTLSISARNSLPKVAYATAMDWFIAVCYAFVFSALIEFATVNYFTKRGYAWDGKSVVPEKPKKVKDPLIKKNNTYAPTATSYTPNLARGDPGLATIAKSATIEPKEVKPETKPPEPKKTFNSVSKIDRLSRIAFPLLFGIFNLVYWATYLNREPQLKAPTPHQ
# Sequence (P47870 26-512): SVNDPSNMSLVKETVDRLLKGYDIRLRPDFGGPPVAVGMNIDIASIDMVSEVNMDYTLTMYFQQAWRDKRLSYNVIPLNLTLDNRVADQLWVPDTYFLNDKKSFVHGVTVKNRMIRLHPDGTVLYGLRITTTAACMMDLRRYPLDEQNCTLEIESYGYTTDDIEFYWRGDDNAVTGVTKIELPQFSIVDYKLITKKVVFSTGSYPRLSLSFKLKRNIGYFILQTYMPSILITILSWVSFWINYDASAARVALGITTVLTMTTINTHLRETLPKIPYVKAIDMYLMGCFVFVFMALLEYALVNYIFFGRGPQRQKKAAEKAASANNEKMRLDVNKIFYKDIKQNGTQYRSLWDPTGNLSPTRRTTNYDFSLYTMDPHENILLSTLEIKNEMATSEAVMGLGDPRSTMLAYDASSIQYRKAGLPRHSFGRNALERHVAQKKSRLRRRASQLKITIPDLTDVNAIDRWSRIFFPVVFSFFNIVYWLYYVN
# Sequence (P18507 40-467 isoform P18507-1 partner limits assumed): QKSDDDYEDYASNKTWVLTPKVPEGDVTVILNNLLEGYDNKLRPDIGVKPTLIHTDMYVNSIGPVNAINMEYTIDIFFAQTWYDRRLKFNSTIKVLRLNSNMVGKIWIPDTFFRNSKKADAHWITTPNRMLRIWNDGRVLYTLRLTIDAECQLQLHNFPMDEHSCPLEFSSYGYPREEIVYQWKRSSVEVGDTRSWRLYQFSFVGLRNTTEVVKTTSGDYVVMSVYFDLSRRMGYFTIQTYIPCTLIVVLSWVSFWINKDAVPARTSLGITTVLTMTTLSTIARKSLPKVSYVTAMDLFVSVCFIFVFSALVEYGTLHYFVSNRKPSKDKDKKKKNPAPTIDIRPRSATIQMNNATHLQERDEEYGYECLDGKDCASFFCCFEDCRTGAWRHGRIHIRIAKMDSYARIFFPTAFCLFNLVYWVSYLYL
# testMethodNotes: Two-microelectrode voltage clamp, IGABA modulation, α1β2γ2S
# Type: cell-based
# conditionDescription: 100 μM compound, GABA EC3–7, Xenopus laevis oocytes, mean ± SEM
Assign activation at 100 µM to each entry below.
Just the number please, in %, no unit attached.

activation at 100 µM for `CCCCN(CCCC)C(=O)c1cccc2c(-c3ccc4c(c3)OCO4)cccc12` is 4

activation at 100 µM measured on `S=C(/C=C/C=C/c1ccc2c(c1)OCO2)N1CCCCC1` = 17

Data point: `CCCCN(CCCC)C(=O)c1cccc(-c2ccc3c(c2)OCO3)c1` ; activation at 100 µM = 63

compound `O=C(c1ccc2cc3c(cc2c1)OCO3)N1CCCCC1` , activation at 100 µM observed: 58

Form field activation at 100 µM, entry `CCCN(CCC)C(=O)c1cccc(-c2ccc3c(c2)OCO3)c1` : 280

Looking up `CC(C)CN(CC(C)C)C(=O)c1cccc2cc3c(cc12)OCO3` , I found its activation at 100 µM recorded as 60

Reported activation at 100 µM of `O=C(/C=C/c1ccc2cc3c(cc2c1)OCO3)N1CCCCC1` : -1

The value of activation at 100 µM measured for the compound `CC(C)N(C(=O)c1ccccc1-c1ccc2c(c1)OCO2)C(C)C` turned out to be 15

Field activation at 100 µM (entry `CN(C)CCNC(=O)/C=C/C=C/c1ccc2c(c1)OCO2` ) reads -15

Field activation at 100 µM (entry `CCN1CCN(C(=O)/C=C/C=C/c2ccc3c(c2)OCO3)CC1` ) reads -5

Data point: `O=C(/C=C/C=C/c1ccc2c(c1)OCO2)Nc1c(F)cc(F)cc1F` ; activation at 100 µM = 5

For `O=C(/C=C/C=C/c1ccc2c(c1)OCO2)NCc1ccccc1` the compound record lists activation at 100 µM as 0

Sure, the documented activation at 100 µM for `CCCCCCCCCCNC(=O)/C=C/C=C/c1ccc2c(c1)OCO2` is -1

The measured activation at 100 µM associated with `CCCN(CCC)C(=O)/C=C/c1cccc2cc3c(cc12)OCO3` reads 67

So for `CCCN(CCC)C(=O)c1ccccc1-c1ccc2c(c1)OCO2` , the logged activation at 100 µM turned out to be 79

// activation at 100 µM lookup, compound = `CCCCN(CCCC)C(=O)/C=C/c1ccc2cc3c(cc2c1)OCO3` , result: 32

----------
Field: nH. Provide a value for each of the compounds that follow.
# targetOfAssay: α1β2γ2S GABAA receptors (Homo sapiens, UniProt P14867+P47870)
# Construct: expressed in transfected cells; host or cells: Xenopus laevis oocytes injected with cRNA (pCMV cDNA templates)
# testMethodNotes: Two-microelectrode voltage clamp, IGABA modulation, α1β2γ2S
# Type: cell-based
# conditionDescription: Hill coefficient of concentration–response curve
Would you mind answering with just the numeric figure?

// assay α1β2γ2S GABAA receptors (Homo sapiens, UniProt P14867+P47870), entry `CCCCN(CCCC)C(=O)c1cccc2cc3c(cc12)OCO3` , nH value = 2.7

Kindly note: α1β2γ2S GABAA receptors (Homo sapiens, UniProt P14867+P47870), `CCCN(CCC)C(=O)c1ccc(-c2ccc3c(c2)OCO3)cc1` , nH value reported: 1.2

Per the reported α1β2γ2S GABAA receptors (Homo sapiens, UniProt P14867+P47870) data, `CC(C)N(C(=O)/C=C/C=C/c1ccc2c(c1)OCO2)C(C)C` has nH of 2.3

Hey, α1β2γ2S GABAA receptors (Homo sapiens, UniProt P14867+P47870) data for `CCCN(CCC)C(=O)c1cccc2cc3c(cc12)OCO3` : nH came out at 1.9

The recorded nH with α1β2γ2S GABAA receptors (Homo sapiens, UniProt P14867+P47870) for `CC(C)N(C(=O)c1cccc(-c2ccc3c(c2)OCO3)c1)C(C)C` was 1.5
